Measured values drawn from patent US10526320B2 for this set.

tested.target: PPAR Delta (Homo sapiens)
Sequence (Q03181 whole entry): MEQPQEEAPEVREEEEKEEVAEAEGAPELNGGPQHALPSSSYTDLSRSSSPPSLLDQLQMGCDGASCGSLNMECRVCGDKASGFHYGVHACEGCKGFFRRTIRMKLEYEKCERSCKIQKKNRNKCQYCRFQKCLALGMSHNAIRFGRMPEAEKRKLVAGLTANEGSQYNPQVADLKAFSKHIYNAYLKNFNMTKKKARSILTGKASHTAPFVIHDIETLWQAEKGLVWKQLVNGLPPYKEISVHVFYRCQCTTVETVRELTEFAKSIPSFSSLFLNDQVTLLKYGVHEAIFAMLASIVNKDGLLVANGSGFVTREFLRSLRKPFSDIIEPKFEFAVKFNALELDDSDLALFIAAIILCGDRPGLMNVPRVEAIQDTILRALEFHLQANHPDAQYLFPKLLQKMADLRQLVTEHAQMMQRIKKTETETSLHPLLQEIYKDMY
assay.overview: PathHunter NHR protein interaction / nuclear translocation agonist test, PPAR Delta
Type: cell-based
settings: agonist mode; read-out: PPAR Delta EC50
pEC50: −log10 of the molar value.
For each record, write down the corresponding pEC50.

Request: Recorded pEC50 of CSc1ccc(C(=O)C2CN(C(=O)Oc3ccccc3)CC2Cc2cc(C)c(OC(C)(C)C(=O)O)c(C)c2)cc1 (stereo not drawn) , please.
Result: > 7.00

Request: Same lookup for CSc1ccc(C(=O)[C@H]2CNC[C@@H]2CCc2cc(C)c(OC(C)(C)C(=O)O)c(C)c2)cc1 (racemic) , please.
Result: 6.60 to 6.70

Request: // repeat for CSc1ccc(C(=O)C2CN(C(=O)Oc3ccc(Cl)cc3)CC2c2cccc(OC(C)(C)C(=O)O)c2)cc1 (single isomer, unassigned) [Compound 34] and report
Result: < 6.60

Request: Can you check CSc1ccc(C(=O)C2CN(C(=O)OC3CCCC3)CC2CCc2cc(C)c(OC(C)(C)C(=O)O)c(C)c2)cc1 (single isomer, unassigned) next?
Result: 6.82 to 7.00

Request: Moving on to the next molecule: CSc1ccc(C(=O)[C@H]2CN(C(=O)Cc3ccc(Cl)cc3)C[C@@H]2c2cc(C)c(OC(C)(C)C(=O)O)c(C)c2)cc1 (racemic)
Result: < 6.60

Request: Repeat with CSc1ccc(C(=O)C2CN(C(=O)Oc3ccc(Br)cc3)CC2c2cc(C)c(OC(C)(C)C(=O)O)c(C)c2)cc1 (stereo not drawn)
Result: > 7.00

Request: Also, CSc1ccc(C(=O)[C@H]2CN(C(=O)OCCC(C)C)C[C@@H]2CCc2cc(C)c(OC(C)(C)C(=O)O)c(C)c2)cc1 (racemic) please.
Result: 6.82 to 7.00

Request: Input CSc1ccc(C(=O)C2CN(C(=O)Oc3ccccc3)CC2Cc2ccc(OC(C)(C)C(=O)O)cc2)cc1 (single isomer, unassigned)
Result: 6.82 to 7.00

Request: // query: COc1ccc(OC(=O)N2CC(C(=O)c3ccc(SC)cc3)[C@@H](c3cc(C)c(OC(C)(C)C(=O)O)c(C)c3)C2)cc1 (mixture of isomers)
Result: 6.60 to 6.70

Request: Try the molecule CSc1ccc(C(=O)[C@@H]2CN(C(=O)Oc3ccccc3)C[C@H]2CCc2cc(C)c(OC(C)(C)C(=O)O)c(C)c2)cc1 (single isomer, unassigned) [Compound 51]
Result: > 7.00

Request: Would you kindly repeat that for CSc1ccc(C(=O)C2CN(C(=O)Oc3ccc(Cl)cc3)CC2c2cc(C)c(OC(C)(C)C(=O)O)c(C)c2)cc1 (single isomer, unassigned) [Compound 13] ?
Result: > 7.00

Request: Try this molecule next: CSc1ccc(C(=O)[C@@H]2CN(C(=O)Oc3ccccc3)C[C@H]2CCc2cc(C)c(OC(C)(C)C(=O)O)c(C)c2)cc1 (single isomer, unassigned) [Compound 52]
Result: > 7.00
